Molecular target: Human RNR (human M1 subunit and human M2 subunit) (Homo sapiens (Human), UniProt P23921)
Sequence (P23921 whole entry): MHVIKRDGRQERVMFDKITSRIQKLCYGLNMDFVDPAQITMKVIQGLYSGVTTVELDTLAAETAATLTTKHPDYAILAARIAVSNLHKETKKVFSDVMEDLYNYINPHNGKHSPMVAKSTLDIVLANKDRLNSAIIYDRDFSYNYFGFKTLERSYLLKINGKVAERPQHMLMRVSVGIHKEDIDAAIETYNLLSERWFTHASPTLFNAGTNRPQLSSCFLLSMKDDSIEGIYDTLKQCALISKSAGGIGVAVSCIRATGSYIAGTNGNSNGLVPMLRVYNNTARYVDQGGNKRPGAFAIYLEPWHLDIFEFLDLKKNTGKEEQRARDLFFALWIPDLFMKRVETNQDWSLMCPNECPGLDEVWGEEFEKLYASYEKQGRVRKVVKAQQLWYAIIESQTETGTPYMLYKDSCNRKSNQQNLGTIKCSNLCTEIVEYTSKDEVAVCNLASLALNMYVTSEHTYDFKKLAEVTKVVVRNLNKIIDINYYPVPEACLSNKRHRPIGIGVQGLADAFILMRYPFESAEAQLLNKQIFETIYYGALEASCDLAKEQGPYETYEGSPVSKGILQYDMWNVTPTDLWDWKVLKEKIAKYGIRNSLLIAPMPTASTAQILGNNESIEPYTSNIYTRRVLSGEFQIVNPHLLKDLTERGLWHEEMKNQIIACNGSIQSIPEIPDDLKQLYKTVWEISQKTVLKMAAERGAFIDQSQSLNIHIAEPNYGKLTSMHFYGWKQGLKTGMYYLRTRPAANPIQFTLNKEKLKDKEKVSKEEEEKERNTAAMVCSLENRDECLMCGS
Test: Human RNR inhibition effect (formation of dCDP from CDP, HPLC)
Assay type: biochemical
Settings: human M1 and M2 proteins, 10 μM CDP, 37° C. for 30 minutes; read-out: RNR Enzyme inhibitory activity IC50
Can you tell me pIC50 for the items I'm about to list?
Remember, pIC50 is on a log scale: it is -log10 of the molar concentration.

Quick one: give measured pIC50 for COc1c(S(=O)(=O)N[C@H](c2n[nH]c(=O)o2)[C@H](C)c2c(F)ccc(C)c2C)ccc(Cl)c1C(C)O (single isomer, unassigned) [Example 208A]
7.00

Quick one: give measured pIC50 for Cc1c(Cl)ccc(F)c1[C@@H](C)[C@H](NS(=O)(=O)c1ccc(Cl)c2c1OCCC2(C)O)c1n[nH]c(=O)o1 (single isomer, unassigned) [Example 209A]
7.00

Quick one: give measured pIC50 for Cc1ccc(F)c([C@@H](C)[C@H](NS(=O)(=O)c2ccc(F)c3c2OCCC3O)c2n[nH]c(=O)o2)c1C (single isomer, unassigned) [Example 230B]
7.30

Quick one: give measured pIC50 for Cc1c(Cl)ccc(F)c1[C@@H](C)[C@H](NS(=O)(=O)c1ccc(Cl)c2c1OCCC2(C)N)c1n[nH]c(=O)o1 (single isomer, unassigned) [Example 330A]
6.92

Quick one: give measured pIC50 for Cc1c(Br)ccc(F)c1[C@@H](C)[C@H](NS(=O)(=O)c1ccc(Cl)c2c1OCCC2O)c1n[nH]c(=O)o1 (single isomer, unassigned) [Example 243A]
7.15

Quick one: give measured pIC50 for Cc1c(Br)ccc(F)c1[C@@H](C)[C@H](NS(=O)(=O)c1ccc(F)c2c1OCCC2(C)O)c1n[nH]c(=O)o1 (single isomer, unassigned) [Example 227A]
7.30

Quick one: give measured pIC50 for [2H]C([2H])([2H])C1(O)CCOc2c(S(=O)(=O)N[C@H](c3n[nH]c(=O)o3)[C@H](C)c3c(F)ccc(Br)c3C)ccc(Cl)c21 (single isomer, unassigned) [Example 226A]
7.30

Quick one: give measured pIC50 for Cc1ccc(F)c([C@@H](C)[C@H](NS(=O)(=O)c2ccc(C(F)(F)F)c3c2OCCC3O)c2n[nH]c(=O)o2)c1C (single isomer, unassigned) [Example 244A]
7.05

Quick one: give measured pIC50 for [2H]C([2H])([2H])C1(O)CCOc2c(S(=O)(=O)N[C@H](c3n[nH]c(=O)o3)[C@H](C)c3c(F)ccc(Cl)c3C)ccc(Cl)c21 (single isomer, unassigned) [Example 228B]
6.85
